# measurement description: ATG_FoxO_CIS: Attagene CIS-FACTORIAL HepG2 Assay for human Forkhead box O (FoxO) (AID 2282943)
# condition description: HepG2 Attagene cis-reporter, FoxO element, mRNA; actives raise or lower the signal
Activity calls are given as the source filed them. Rule for the calls: active = hit-call score of the fitted dose curve at least 0.9, where 1 is the maximum; inactive = score below 0.9.
Valid outcomes are listed here; reply with one: 1 = active, -1 = inactive

Solved cases (6 shown):
molecule	assigned class
CCOCC(C)O (stereo not drawn)	-1
N#CCCNCCC#N	-1
CC(=N[Si](C)(C)C)O[Si](C)(C)C	-1
CCOC(=O)CCCCCCCCC(=O)OCC	-1
CC1COC(=O)O1 (stereo not drawn)	-1
O=Cc1ccccc1O	-1

## Input Assay outcome for OCC=Cc1ccccc1 : what was it?
## Output -1

## Input Next record, please: CC(=O)OC(C)(C)C
## Output -1

## Input Next record, please: CCOC(=O)COC(=O)c1ccccc1C(=O)OCC
## Output -1

## Input Next record, please: C1COCO1
## Output -1

## Input Next record, please: NC(=O)c1cccnc1
## Output -1
